System: Staphylococcus aureus
protocolSummary: Antibacterial activity against Staphylococcus aureus Newman D2C NCTC 10833 assessed as reduction in microbial growth incubated for 16 hrs by serial dilution method
Type: functional
measuredQuantity: MIC

## Task Please supply the value of reported MIC for the item O=C(Nc1cncc(Cl)c1)C1CN(c2cccc(Cl)c2)N(c2cccc(Cl)c2)C1=O (centres undefined)
## Result > 40 µM

## Task Query MIC for N#Cc1cnc(NC(=O)C2CN(c3ccccc3)N(c3ccccc3)C2=O)s1 (centres undefined)
## Result > 40 µM

## Task Return MIC (reported value) for this molecule: O=C(Nc1ccc(-c2cn[nH]c2)cc1)C1CN(c2cccc(Cl)c2)N(c2cccc(Cl)c2)C1=O (centres undefined)
## Result > 40 µM

## Task Tell us which MIC value is on record for O=C(NCc1ccncc1)C1CN(c2cccc(Cl)c2)N(c2cccc(Cl)c2)C1=O (centres undefined)
## Result > 40 µM

## Task For the molecule O=C(Nc1ccc2[nH]cnc2c1)C1CN(c2cccc(Cl)c2)N(c2cccc(Cl)c2)C1=O (centres undefined) , give its measured MIC value.
## Result > 40 µM

## Task Identify measured MIC corresponding to O=C1SCCC1NC(=O)C1CN(c2cccc(Cl)c2)N(c2cccc(Cl)c2)C1=O (centres undefined)
## Result 11 µM

## Task Quote MIC reported for O=C(Nc1ccccn1)C1CN(c2cccc(Cl)c2)N(c2cccc(Cl)c2)C1=O (centres undefined) please.
## Result > 40 µM

## Task Complete the entry with MIC for O=C(Nc1ccsc1)C1CN(c2cccc(Cl)c2)N(c2cccc(Cl)c2)C1=O (centres undefined)
## Result > 40 µM

## Task Respond only with MIC recorded for O=C(Nc1ccc2ncsc2c1)C1CN(c2cccc(Cl)c2)N(c2cccc(Cl)c2)C1=O (centres undefined)
## Result > 40 µM

## Task Input O=C(Nc1ncc(Cl)s1)C1CN(c2cccc(Cl)c2)N(c2cccc(Cl)c2)C1=O (centres undefined) , output reported MIC.
## Result > 40 µM

## Task Write down MIC measured for item CSc1nnc(NC(=O)C2CN(c3cccc(Cl)c3)N(c3cccc(Cl)c3)C2=O)s1 (centres undefined)
## Result > 40 µM

## Task Please indicate MIC recorded for O=C(Nc1cccnc1)C1CN(c2cccc(Cl)c2)N(c2cccc(Cl)c2)C1=O (centres undefined)
## Result > 40 µM

## Task Given the molecule N#Cc1cnc(NC(=O)C2CN(c3cccc(Cl)c3)N(c3cccc(Cl)c3)C2=O)s1 (centres undefined) , write its reported MIC.
## Result 10 µM

## Task // fetch MIC given entry C[C@@H]1O[C@@H]1P(=O)(O)O [FOSFOMYCIN]
## Result 17 µM

Origin of the recorded values: ChEMBL document CHEMBL5537113
